Examples of compounds with documented pIC50 follow.
Target: human recombinant HDAC6 (Homo sapiens)
Construct: purchased Calbiochem Inc. 382180
Experiment: HDAC6 enzyme activity inhibition (HDAC Fluorimetric Drug Discovery Kit)
Type: biochemical
Conditions: human recombinant HDAC6, same protocol as HDAC1
Method: An experiment was conducted to identify the selectivity of the compound represented by formula I of the present invention to HDAC6 through an experiment on HDAC1 and HDAC6 enzyme activity inhibition. […]
Friendly reminder that pIC50 comes from taking -log10 of the concentration in mol/L.

Use these answered entries as a reference point.
- Chemical Structure: "Fc1cc(-c2nnc(C(F)F)o2)ccc1Cn1cc(-c2cccc(C3CN(C4CCC4)C3)c2)nn1"
  System Name: "human recombinant HDAC6 (Homo sapiens)"
  pIC50: 7.55
- Chemical Structure: "FC(F)c1nnc(-c2ccc(Cn3cc(-c4ccc5c(c4)CNC5)nn3)nc2)o1"
  System Name: "human recombinant HDAC6 (Homo sapiens)"
  pIC50: 7.19
- Chemical Structure: "Fc1cc(-c2nnc(C(F)F)o2)cnc1Cn1cc(-c2ccc3[nH]ncc3c2)nn1"
  System Name: "human recombinant HDAC6 (Homo sapiens)"
  pIC50: 7.38
- Chemical Structure: "CN(C)Cc1ccc(-c2cn(Cc3ncc(-c4nnc(C(F)F)o4)cc3F)nn2)c(Cl)c1"
  System Name: "human recombinant HDAC6 (Homo sapiens)"
  pIC50: 7.42
- Chemical Structure: "CC1CCN(Cc2ccc(-c3cn(Cc4ccc(-c5nnc(C(F)F)o5)cc4F)nn3)cn2)CC1"
  System Name: "human recombinant HDAC6 (Homo sapiens)"
  pIC50: 7.20

Exercise: I have this compound here, `Fc1cc(-c2nnc(C(F)F)o2)ccc1Cn1cc(-c2ccc3c(c2)CN(C2COC2)C3)nn1` , and I need its recorded pIC50.
Solution: 7.30

Exercise: I have this compound here, `CN(C)Cc1ccc(-c2cn(Cc3ncc(-c4nnc(C(F)F)o4)cc3F)nn2)cc1Cl` , and I need its recorded pIC50.
Solution: 7.01

---

Biological target: human recombinant HDAC6 (Homo sapiens)
Construct: purchased Calbiochem Inc. 382180
Test: HDAC6 enzyme activity inhibition (HDAC Fluorimetric Drug Discovery Kit)
Format: biochemical
Conditions: HDAC1 IC50 / HDAC6 IC50
Assay Endpoint: HDAC6 selectivity (fold)
A number alone suffices; assume fold.

- Chemical Structure: "CC(C)(N)C(=O)Nc1cccc(-c2cn(Cc3ccc(-c4nnc(C(F)F)o4)cn3)nn2)c1"
  Value: 3759

Exercise: I have this compound here, `CN(C)CCN(C)C(=O)c1cccc(-c2cn(Cc3ccc(-c4nnc(C(F)F)o4)cn3)nn2)c1` , and I need its recorded HDAC6 selectivity (fold).
Solution: 3759

Exercise: I have this compound here, `CN(C)Cc1cccc(-c2cn(Cc3ccc(-c4nnc(C(F)F)o4)cn3)nn2)c1` , and I need its recorded HDAC6 selectivity (fold).
Solution: 1308

Exercise: I have this compound here, `FC(F)c1nnc(-c2ccc(Cn3cc(-c4cnc5[nH]ccc5c4)nn3)nc2)o1` , and I need its recorded HDAC6 selectivity (fold).
Solution: 5952

Exercise: I have this compound here, `CCN1CCC(c2cccc(-c3cn(Cc4ccc(-c5nnc(C(F)F)o5)cc4F)nn3)c2)CC1` , and I need its recorded HDAC6 selectivity (fold).
Solution: 1170

Exercise: I have this compound here, `Fc1cc(-c2nnc(C(F)F)o2)ccc1Cn1cc(-c2ccc3cc[nH]c3c2)nn1` , and I need its recorded HDAC6 selectivity (fold).
Solution: 591

---

Target: human recombinant HDAC6 (Homo sapiens, UniProt Q9UBN7)
Construct: purchased Calbiochem Inc. 382180
Test: HDAC6 enzyme activity inhibition (HDAC Fluorimetric Drug Discovery Kit)
Assay type: biochemical
Conditions: HDAC6 over HDAC1
Experimental: An experiment was conducted to identify the selectivity of the compound represented by formula I of the present invention to HDAC6 through an experiment on HDAC1 and HDAC6 enzyme activity inhibition. […]
Record Fulfilled whenever HDAC6 selectivity (fold) is at 1000 fold or higher; record Not fulfilled when lower.

Illustrative cases are given below, each with its answer.
- Chemical Structure: "Fc1cc(-c2nnc(C(F)F)o2)cnc1Cn1cc(-c2ccc(CN3CCCC3)s2)nn1"
  Category: "Fulfilled"
- Chemical Structure: "Fc1cc(-c2nnc(C(F)F)o2)cnc1Cn1cc(-c2ccccn2)nn1"
  Category: "Not fulfilled"
- Chemical Structure: "CN(C)Cc1ccc(-c2cn(Cc3ccc(-c4nnc(C(F)F)o4)cc3F)nn2)nc1"
  Category: "Fulfilled"
- Chemical Structure: "CCN1CC(c2cccc(-c3cn(Cc4ccc(-c5nnc(C(F)F)o5)cn4)nn3)c2)C1"
  Category: "Fulfilled"

Turning now to a further record.
Exercise: Hi team, for `Fc1cc(-c2nnc(C(F)F)o2)ccc1Cn1cc(-c2ccccc2CN2CCCC2)nn1` , is the recorded HDAC6 selectivity (fold) at or above 1000 fold?
Solution: Not fulfilled

---

Target: human recombinant HDAC6 (Homo sapiens, UniProt Q9UBN7)
Construct: purchased Calbiochem Inc. 382180
Sequence (Q9UBN7 1-1215): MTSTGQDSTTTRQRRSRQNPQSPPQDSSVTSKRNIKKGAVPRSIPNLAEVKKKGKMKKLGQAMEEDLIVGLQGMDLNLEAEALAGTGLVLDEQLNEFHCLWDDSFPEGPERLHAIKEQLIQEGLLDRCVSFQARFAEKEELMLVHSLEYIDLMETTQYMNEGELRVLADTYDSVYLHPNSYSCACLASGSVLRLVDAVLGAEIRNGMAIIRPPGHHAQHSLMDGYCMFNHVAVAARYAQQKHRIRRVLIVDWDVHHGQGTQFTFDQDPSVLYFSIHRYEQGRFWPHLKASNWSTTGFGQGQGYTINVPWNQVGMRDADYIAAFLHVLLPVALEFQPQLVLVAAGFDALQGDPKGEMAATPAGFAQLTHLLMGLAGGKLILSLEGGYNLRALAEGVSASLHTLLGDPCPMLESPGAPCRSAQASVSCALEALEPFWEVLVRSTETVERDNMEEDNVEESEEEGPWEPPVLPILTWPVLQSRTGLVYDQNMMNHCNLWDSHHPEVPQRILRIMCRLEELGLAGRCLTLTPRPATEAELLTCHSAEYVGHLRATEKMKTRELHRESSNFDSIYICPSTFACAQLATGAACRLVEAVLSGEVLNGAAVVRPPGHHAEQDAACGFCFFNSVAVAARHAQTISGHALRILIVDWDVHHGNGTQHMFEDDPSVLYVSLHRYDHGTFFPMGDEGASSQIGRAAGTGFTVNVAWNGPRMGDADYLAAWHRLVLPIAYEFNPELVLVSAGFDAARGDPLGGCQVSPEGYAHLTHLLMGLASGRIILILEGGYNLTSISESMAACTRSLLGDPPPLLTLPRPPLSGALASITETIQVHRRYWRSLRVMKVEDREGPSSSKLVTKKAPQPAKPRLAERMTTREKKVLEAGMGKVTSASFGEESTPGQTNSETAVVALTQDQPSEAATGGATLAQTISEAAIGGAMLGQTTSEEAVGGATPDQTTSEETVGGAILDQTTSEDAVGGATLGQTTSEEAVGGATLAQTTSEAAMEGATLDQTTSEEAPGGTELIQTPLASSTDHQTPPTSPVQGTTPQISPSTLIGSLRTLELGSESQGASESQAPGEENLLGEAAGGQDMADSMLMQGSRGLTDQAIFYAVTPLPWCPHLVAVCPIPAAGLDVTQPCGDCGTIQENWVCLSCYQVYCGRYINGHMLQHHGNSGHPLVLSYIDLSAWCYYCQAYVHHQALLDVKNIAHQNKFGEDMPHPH
Test: HDAC6 enzyme activity inhibition (HDAC Fluorimetric Drug Discovery Kit)
Assay type: biochemical
Conditions: HDAC1 IC50 / HDAC6 IC50
Assay Endpoint: HDAC6 selectivity (fold)
A number alone suffices; assume fold.

Use these answered entries as a reference point.
- Chemical Structure: "Fc1ccnc(-c2cn(Cc3ccc(-c4nnc(C(F)F)o4)cn3)nn2)c1"
  System Name: "human recombinant HDAC6 (Homo sapiens, UniProt Q9UBN7)"
  HDAC6 selectivity (fold): 672
- Chemical Structure: "CN1CCc2ccc(-c3cn(Cc4ccc(-c5nnc(C(F)F)o5)cc4F)nn3)cc2C1"
  System Name: "human recombinant HDAC6 (Homo sapiens, UniProt Q9UBN7)"
  HDAC6 selectivity (fold): 1385
- Chemical Structure: "CCN1CCc2ccc(-c3cn(Cc4ccc(-c5nnc(C(F)F)o5)cn4)nn3)cc2C1"
  System Name: "human recombinant HDAC6 (Homo sapiens, UniProt Q9UBN7)"
  HDAC6 selectivity (fold): 1039

Exercise: I have this compound here, `CC(C)(C)OC(=O)N1CCC(c2cn(Cc3ccc(-c4nnc(C(F)F)o4)cn3)nn2)CC1` , and I need its recorded HDAC6 selectivity (fold).
Solution: 844

Exercise: I have this compound here, `FC(F)c1nnc(-c2ccc(Cn3cc(-c4ccc5c(CN6CCCC6)c[nH]c5c4)nn3)nc2)o1` , and I need its recorded HDAC6 selectivity (fold).
Solution: 7692
